target: SBP domain of LMRG_02270 (GlnPQ SBP; GlnP) (Listeria monocytogenes); construct: SBP domain only (residues 29-254), signal peptide (first 28 residues) and transmembrane domain removed; N-terminal His-tag (pET-19b), codon-optimised synthetic gene; E. coli BL21-Gold (DE3); locus also printed as LMRG_02770 (apparent misprint); test: isothermal titration calorimetry
Sequence (A0A0H3GES4 entry or part of it): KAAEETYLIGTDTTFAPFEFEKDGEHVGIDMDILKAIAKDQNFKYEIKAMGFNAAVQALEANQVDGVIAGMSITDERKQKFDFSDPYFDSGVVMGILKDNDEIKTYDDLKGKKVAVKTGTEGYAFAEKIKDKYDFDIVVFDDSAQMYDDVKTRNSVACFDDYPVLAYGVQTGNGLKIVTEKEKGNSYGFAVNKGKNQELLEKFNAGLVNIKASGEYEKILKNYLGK

Compound	Kd [µM]
NC(=O)CC[C@H](N)C(=O)O	4.7

Hey, just so you know, these numbers are from paper PMC5289647.
